target: Macaca fascicularis IL-36R extracellular domain expressed with a C-terminal myc-myc-hexahistidine tag (Macaca fascicularis); assay: SPR (Biacore 4000), mAb captured on anti-human Fc, 25°C
Measured Parameter: pKd
Just so you know, pKd here is -log10 of the concentration in molar units; reply with that number alone.

Q: Output pKd of H4H14708P2 (antibody, human IgG4 S228P, kappa, V domains shown) VH: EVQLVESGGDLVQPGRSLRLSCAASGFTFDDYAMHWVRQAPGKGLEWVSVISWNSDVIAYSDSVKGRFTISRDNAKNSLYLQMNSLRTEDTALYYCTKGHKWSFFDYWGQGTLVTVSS VL: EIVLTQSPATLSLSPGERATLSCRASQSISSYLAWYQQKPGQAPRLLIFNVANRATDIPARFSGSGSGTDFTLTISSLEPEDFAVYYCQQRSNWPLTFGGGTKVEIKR
Ans: 7.89
